The values you see were collected from ChEMBL document CHEMBL1128598.

- EXPERIMENTAL SYSTEM: GABA-A receptor; anion channel (Rattus norvegicus) (UniProt O09028+P15431+P18506+P18508+P19969+P20236+P23574+P23576+P28471+P28473+P30191+P62813+P63079+P63138+Q91ZM7+Q9ES14)
- ASSAY REMARKS: GABA shift as the ratio of IC50 (no GABA) to that of IC50 (GABA); GABA shift
- Assay type: protein-complex assay
Doc: threshold 2 (exclusive). Items with GS beneath it return T; others return F.

Completed entries (count: 3):
CN1C2=C(C(=O)Nc3ccccc3)C(=O)CCN2c2ccccc21: F
COc1ccc(NC(=O)C2=C(O)CCn3c2nc2ccccc23)cc1: F
O=C(Nc1ccccc1F)c1c(O)ccn2c1nc1ccccc12: F

Task item: Please indicate whether the reported GS of CCN1C2=C(C(=O)Nc3ccccc3)C(=O)CCN2c2ccccc21 is strictly below 2.
Reply: T

Task item: Same for O=C(Nc1c(F)cccc1F)C1=C(O)CCn2c1nc1ccccc12
Reply: T

Task item: Same for O=C1CCN2C(=C1C(=O)Nc1ccccc1)Nc1ccccc12
Reply: T

Task item: Same for O=C1CCN2C(=C1C(=O)Nc1ccccc1)N(Cc1ccccc1)c1ccccc12
Reply: F

Task item: Same for O=C1CCn2c(nc3ccccc32)/C1=C(\O)Sc1ccccc1
Reply: T

Task item: Same for CN1C2=C(C(=O)Nc3ccccc3F)C(=O)CCN2c2ccccc21
Reply: T

Task item: Same for O=C(Nc1ccccc1)c1c(O)ccn2c1nc1ccccc12
Reply: T

Task item: Same for NC(=O)C1=C(O)CCn2c1nc1ccccc12
Reply: T

Task item: Same for O=C(Nc1c(Cl)cccc1Cl)C1=C(O)CCn2c1nc1ccccc12
Reply: T

Task item: Same for CN1C(=O)CN=C(c2ccccc2)c2cc(Cl)ccc21
Reply: F

Task item: Same for O=C1CCn2c(nc3ccccc32)/C1=C(\O)Oc1ccccc1
Reply: T

* * *

- EXPERIMENTAL SYSTEM: GABA-A receptor; anion channel
- ASSAY REMARKS: Binding affinity against benzodiazepine site of gamma-aminobutyric-acid A receptor of rat cerebral cortex by using [3H]flunitrazepam in the absence of GABA.
- Assay type: tissue-based
Doc: threshold 0.1 µM (exclusive). Items with IC50 beneath it return MET; others return NOT MET.

Completed entries (count: 4):
COc1cccc(NC(=O)C2=C(O)CCn3c2nc2ccccc23)c1: MET
O=C(Nc1cccc(Cl)c1)C1=C(O)CCn2c1nc1ccccc12: NOT MET
CCO/C(O)=C1\C(=O)CCn2c1nc1ccccc12: NOT MET
O=C(Nc1ccccc1Cl)C1=C(O)CCn2c1nc1ccccc12: MET

Task item: Please indicate whether the reported IC50 of COc1ccc(NC(=O)C2=C(O)CCn3c2nc2ccccc23)cc1 is strictly below 0.1 µM.
Reply: MET

Task item: Same for COc1ccccc1NC(=O)C1=C(O)CCn2c1nc1ccccc12
Reply: NOT MET

Task item: Same for O=C(NC1CCCCC1)C1=C(O)CCn2c1nc1ccccc12
Reply: NOT MET

Task item: Same for O=C1CCN2C(=C1C(=O)Nc1ccccc1)Nc1ccccc12
Reply: MET

Task item: Same for O=C(Nc1c(F)cccc1F)C1=C(O)CCn2c1nc1ccccc12
Reply: MET

Task item: Same for O=C(Nc1c(Cl)cccc1Cl)C1=C(O)CCn2c1nc1ccccc12
Reply: NOT MET

Task item: Same for CN(C(=O)C1=C(O)CCn2c1nc1ccccc12)c1ccccc1
Reply: NOT MET
